Record form. Attribute: melting point. Fill in for each entry.

Would you kindly share the measured melting point for `CON(Cc1ccc(-c2noc(C(F)(F)F)n2)cc1)C(=O)NC(C)C` ? 106 to 107.3 °C

Would you kindly share the measured melting point for `CON(Cc1ccc(-c2noc(C(F)(F)F)n2)cc1)C(=O)NC1CC1` ? 84 to 87 °C

Would you kindly share the measured melting point for `C#CCNC(=O)N(Cc1ccc(-c2noc(C(F)(F)F)n2)cc1)OC` ? 88.9 to 90.6 °C

Would you kindly share the measured melting point for `CCONC(=O)N(Cc1ccc(-c2noc(C(F)(F)F)n2)cc1)OC` ? 107 to 110 °C

Would you kindly share the measured melting point for `COCC(=O)N(Cc1ccc(-c2noc(C(F)(F)F)n2)cc1)CC(F)(F)F` ? 92.6 to 94.3 °C

Would you kindly share the measured melting point for `C=CCNC(=O)N(Cc1ccc(-c2noc(C(F)(F)F)n2)cc1)OC` ? 64 to 70 °C
